Source of measurements: patent US20190248900A1

Molecular target: T1, M13
T1 construct: also called PD1 mutant M13
Test: scFv-phage ELISA
// values below are reported OD490
I'd appreciate a reply containing only the number, no unit.

Record excerpt, results attached:
Quick note, OD490 for PD1-45F4 (antibody, V domains shown, scFv-phage in the screening ELISA; later whole IgG) VH: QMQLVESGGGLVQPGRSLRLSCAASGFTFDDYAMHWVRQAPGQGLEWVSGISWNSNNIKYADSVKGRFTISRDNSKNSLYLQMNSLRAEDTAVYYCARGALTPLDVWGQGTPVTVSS VL: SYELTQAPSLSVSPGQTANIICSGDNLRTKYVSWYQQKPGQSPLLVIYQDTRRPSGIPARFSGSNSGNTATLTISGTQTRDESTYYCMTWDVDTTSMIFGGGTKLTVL landed at 3.5

Memo: PD1-41C9 (antibody, V domains shown, scFv-phage in the screening ELISA; whole IgG in the other assays) VH: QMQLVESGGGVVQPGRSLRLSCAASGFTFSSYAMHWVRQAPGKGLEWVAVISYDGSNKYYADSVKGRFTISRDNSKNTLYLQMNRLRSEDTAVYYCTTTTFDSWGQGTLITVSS VL: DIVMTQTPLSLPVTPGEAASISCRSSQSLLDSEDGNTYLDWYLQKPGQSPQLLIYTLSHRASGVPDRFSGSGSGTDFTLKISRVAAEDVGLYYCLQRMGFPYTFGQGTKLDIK , reported OD490: 3.6

Entry PD1-29H3 (antibody, V domains shown, scFv-phage in the screening ELISA; later whole IgG) VH: QMQLVESGGNLVQPGRSLRLSCAASGFTFDDYGMHWVRQAPGKGLEWVSSISWNSGTIGYADSVKGRFTISRDNAKNSLYLQMNSLRSEDTAVYYCARLLHQMNEHEFMDVWGQGTTVTVSS VL: QLVLTQPSSMSEAPGQRVTISCSGGTSNIGTNAVNWYQQPPGKAPTLLIYYDDRLTSGVSDRFSGSKSGTSASLAISRLQSEDEADYYCAAWDDSLNGWVFGGGTKLTVL ; OD490 = 3.5

Now for the binder whose OD490 we want.
Recorded OD490 (binder PD1-49B9 (antibody, V domains shown, scFv-phage in the screening ELISA; later whole IgG) VH: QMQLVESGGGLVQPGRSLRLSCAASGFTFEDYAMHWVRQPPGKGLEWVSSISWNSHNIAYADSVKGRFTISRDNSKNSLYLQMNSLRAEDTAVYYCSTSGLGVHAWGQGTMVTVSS VL: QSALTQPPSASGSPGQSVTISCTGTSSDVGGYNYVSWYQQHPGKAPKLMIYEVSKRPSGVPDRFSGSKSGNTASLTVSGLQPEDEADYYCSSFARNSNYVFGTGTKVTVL ): 3.9
